Recorded values, source paper PMC10218303.

Entries and their measured CC50 follow.
assay: in vitro; conditions: human
Bridge positions count the residues as written; N and C are the ends. Square brackets hold non-standard residues; d marks the D form. Peptide text beside a SMILES is read from it. Dab = NCC[C@H](N)C(=O)O

# molecule, value
data = [
    ("CC(=O)N[C@@H](CCC(=O)O)C(=O)N[C@H](C(=O)N[C@@H](CCN)C(=O)N[C@H]1CCNC(=O)[C@H](Cn2cc(CC(=O)O)nn2)NC(=O)[C@H](CCN)NC(=O)[C@H](CCN)NC(=O)[C@H](CC(C)C)NC(=O)[C@@H](Cc2ccccc2)NC(=O)[C@H](Cc2ccc(O)cc2)NC1=O)[C@@H](C)O", "> 50 µM"),
]

Form: molecule = CCC(CC)COC(=O)[C@H](C)N[P@](=O)(OC[C@H]1O[C@@](C#N)(c2ccc3c(N)ncnn23)[C@H](O)[C@@H]1O)Oc1ccccc1 [remdesivir, reference compound] ; CC50 = 43 µM

Form: molecule = CC(=O)N[C@@H](CCC(=O)O)C(=O)N[C@H](C(=O)N[C@@H](CCN)C(=O)N[C@H]1CCNC(=O)[C@H](Cn2cc(CC(=O)N[C@@H](CC(C)C)C(=O)N[C@H]3CCNC(=O)[C@H]([C@@H](C)O)NC(=O)[C@H](CCN)NC(=O)[C@H](CCN)NC(=O)[C@H](CC(C)C)NC(=O)[C@@H](Cc4ccccc4)NC(=O)[C@H](Cc4c[nH]c5ccccc45)NC3=O)nn2)NC(=O)[C@H](CCN)NC(=O)[C@H](CCN)NC(=O)[C@H](Cc2ccc(O)cc2)NC(=O)[C@@H](Cc2ccccc2)NC(=O)[C@H](Cc2ccc(O)cc2)NC1=O)[C@@H](C)O ; CC50 = > 50 µM

Form: molecule = CC(C)C[C@@H]1NC(=O)[C@@H](Cc2ccccc2)NC(=O)[C@H](Cc2c[nH]c3ccccc23)NC(=O)[C@@H](NC(=O)[C@@H](N)CCN)CCNC(=O)[C@H]([C@@H](C)O)NC(=O)[C@H](CCN)NC(=O)[C@H](Cc2c[nH]c3ccccc23)NC1=O [monomer 8] (H-[Dab][Dab]W[dF]LW[Dab]T; lactam 2-C) ; CC50 = > 50 µM

Form: molecule = CC[C@H](C)[C@@H]1NC(=O)[C@@H](NC(=O)[C@H](CCN)NC(=O)[C@@H](NC(=O)[C@H](CC(C)C)NC(C)=O)[C@@H](C)O)CCNC(=O)[C@H](Cn2cc(CC(=O)O)nn2)NC(=O)[C@H](CCN)NC(=O)[C@H](CCN)NC(=O)[C@H](Cc2ccc(O)cc2)NC(=O)[C@@H](Cc2ccccc2)NC1=O ; CC50 = > 50 µM

----------
test: in vitro; conditions: human
Bridge positions count the residues as written; N and C are the ends. Square brackets hold non-standard residues; d marks the D form. Peptide text beside a SMILES is read from it. Dab = NCC[C@H](N)C(=O)O
readout_label: CC50

// below: answered compounds
# compound, readout_label, value
records = [
    ("CC(C)C[C@@H]1NC(=O)[C@@H](Cc2ccccc2)NC(=O)[C@H](Cc2ccc(O)cc2)NC(=O)[C@@H](NC(=O)[C@@H](N)CCN)CCNC(=O)[C@H]([C@@H](C)O)NC(=O)[C@H](CCN)NC(=O)[C@H](Cc2c[nH]c3ccccc23)NC1=O [monomer 1] (H-[Dab][Dab]Y[dF]LW[Dab]T; lactam 2-C)", "CC50", "> 50 µM"),
    ("CC(C)C[C@@H]1NC(=O)[C@@H](Cc2ccccc2)NC(=O)[C@H](Cc2c[nH]c3ccccc23)NC(=O)[C@@H](NC(=O)[C@@H](N)CC(C)C)CCNC(=O)[C@H]([C@@H](C)O)NC(=O)[C@H](CCN)NC(=O)[C@H](CCN)NC1=O [monomer 5] (H-L[Dab]W[dF]L[Dab][Dab]T; lactam 2-C)", "CC50", "> 50 µM"),
    ("CC(C)C[C@@H]1NC(=O)[C@@H](Cc2ccccc2)NC(=O)[C@H](Cc2c[nH]c3ccccc23)NC(=O)[C@@H](NC(=O)[C@@H](N)CCN)CCNC(=O)[C@H]([C@@H](C)O)NC(=O)[C@H](CCN)NC(=O)[C@H](Cc2c[nH]c3ccccc23)NC1=O [monomer 8] (H-[Dab][Dab]W[dF]LW[Dab]T; lactam 2-C)", "CC50", "> 50 µM"),
    ("CC(=O)N[C@@H](CCC(=O)O)C(=O)N[C@H](C(=O)N[C@@H](CCN)C(=O)N[C@H]1CCNC(=O)[C@H](Cn2cc(CC(=O)N[C@@H](CC(C)C)C(=O)N[C@H]3CCNC(=O)[C@H]([C@@H](C)O)NC(=O)[C@H](CCN)NC(=O)[C@H](CCN)NC(=O)[C@H](CC(C)C)NC(=O)[C@@H](Cc4ccccc4)NC(=O)[C@H](Cc4c[nH]c5ccccc45)NC3=O)nn2)NC(=O)[C@H](CCN)NC(=O)[C@H](CCN)NC(=O)[C@H](Cc2ccc(O)cc2)NC(=O)[C@@H](Cc2ccccc2)NC(=O)[C@H](Cc2ccc(O)cc2)NC1=O)[C@@H](C)O", "CC50", "> 50 µM"),
]

Proceeding to the next compound to report its CC50.
Form: compound = CC(=O)N[C@@H](CCC(=O)O)C(=O)N[C@H](C(=O)N[C@@H](CCN)C(=O)N[C@H]1CCNC(=O)[C@H](Cn2cc(CC(=O)N[C@@H](CCN)C(=O)N[C@H]3CCNC(=O)[C@H]([C@@H](C)O)NC(=O)[C@H](CCN)NC(=O)[C@H](Cc4c[nH]c5ccccc45)NC(=O)[C@H](CC(C)C)NC(=O)[C@@H](Cc4ccccc4)NC(=O)[C@H](Cc4c[nH]c5ccccc45)NC3=O)nn2)NC(=O)[C@H](CCN)NC(=O)[C@H](CCN)NC(=O)[C@H](CC(C)C)NC(=O)[C@@H](Cc2ccccc2)NC(=O)[C@H](Cc2ccc(O)cc2)NC1=O)[C@@H](C)O ; CC50 = > 50 µM
